# test.system: sEGFR-MMB (human)
# Sequence (chain, as listed by the source limits assumed): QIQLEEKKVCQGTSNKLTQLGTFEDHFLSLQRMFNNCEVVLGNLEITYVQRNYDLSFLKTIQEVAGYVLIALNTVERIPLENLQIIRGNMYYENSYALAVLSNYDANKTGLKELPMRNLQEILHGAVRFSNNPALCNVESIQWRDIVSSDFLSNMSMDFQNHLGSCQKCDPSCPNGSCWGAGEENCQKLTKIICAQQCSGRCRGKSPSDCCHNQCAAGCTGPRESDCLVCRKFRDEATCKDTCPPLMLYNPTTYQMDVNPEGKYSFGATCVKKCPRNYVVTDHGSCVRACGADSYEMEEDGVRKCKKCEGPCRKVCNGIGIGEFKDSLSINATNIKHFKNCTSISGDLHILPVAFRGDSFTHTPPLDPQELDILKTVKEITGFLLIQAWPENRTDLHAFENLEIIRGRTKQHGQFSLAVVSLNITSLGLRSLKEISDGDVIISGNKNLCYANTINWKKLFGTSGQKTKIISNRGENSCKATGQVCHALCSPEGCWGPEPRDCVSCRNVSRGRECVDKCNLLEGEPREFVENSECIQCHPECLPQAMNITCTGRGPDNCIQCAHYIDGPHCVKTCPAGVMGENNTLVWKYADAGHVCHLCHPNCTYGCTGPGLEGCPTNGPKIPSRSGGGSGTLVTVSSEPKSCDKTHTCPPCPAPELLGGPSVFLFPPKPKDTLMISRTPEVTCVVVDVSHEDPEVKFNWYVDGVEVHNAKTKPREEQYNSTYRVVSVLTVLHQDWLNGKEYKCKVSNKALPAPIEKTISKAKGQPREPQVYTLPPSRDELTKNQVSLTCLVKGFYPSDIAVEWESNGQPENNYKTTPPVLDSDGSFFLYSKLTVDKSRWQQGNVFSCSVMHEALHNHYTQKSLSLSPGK
# test.details: phage ELISA on coated sEGFR-MMB, chemiluminescence (background typically <200 units)
I'd be grateful if you could share measured ELISA for these entries.
Reply numerically in units, unit not repeated.

### Prompt Give reported ELISA value for SVCVGTAFPGWMVCGP [S20 library phage peptide of SEQ ID NO: 47]
### Response 4770

### Prompt Give reported ELISA value for KTCVSTTFDLWFVCFA [P176]
### Response 37400

### Prompt Give reported ELISA value for WMCFLEGYGASLMCQC [S20 library phage peptide of SEQ ID NO: 44]
### Response 4800

### Prompt Give reported ELISA value for DSCCSFLTDGTVVCSL [S20 library phage peptide of SEQ ID NO: 45]
### Response 9540

### Prompt Give reported ELISA value for LLCATTSFRDWFVCFT [S20 library phage peptide of SEQ ID NO: 49]
### Response 4510

### Prompt Give reported ELISA value for PTCDSATRRVLTICAD [S20 library phage peptide of SEQ ID NO: 43]
### Response 5420

### Prompt Give reported ELISA value for YICTPSDIDSWYICYL [S20 library phage peptide of SEQ ID NO: 46]
### Response 6620
